- Test system: SK-MEL-2 melanoma
- PROCEDURE_SUMMARY: NCI tumour cell line growth inhibition, 48 h
What GI50 was measured for each of the following?

Query: Note GI50 for the compound shown: "Cc1cn2c(/C=C3\C(=O)Nc4ccc(O)cc43)c(-c3ccc(Cl)cc3)nc2s1"
Result: 21.9 µM

Query: Note GI50 for the compound shown: CC(C)=CCc1cc(O)cc2c1OC(C=C(C)C)C1=C2C(=O)C2=C(NCCS2(=O)=O)C1=O (stereo not given)
Result: 2.85 µM

Query: Note GI50 for the compound shown: "Cc1ccc(/C=C/c2c(C(=O)/C=C/c3ccc(C(F)(F)F)cc3)c(C)nc3ccccc23)cc1"
Result: 1.83 µM

Query: Note GI50 for the compound shown: "Cc1nc2cnc(N)c(C#Cc3cncc(C(=O)Nc4ccc(CN5CCN(C)CC5)c(C(F)(F)F)c4)c3)c2nc1C"
Result: 0.187 µM

Query: Note GI50 for the compound shown: "COc1ccc(-c2oc(=O)ccc2-c2cc(OC)c(OC)c(OC)c2)cc1F"
Result: 6.98 µM

Query: Note GI50 for the compound shown: "COc1ccncc1C#Cc1cncc(C(=O)Nc2ccc(CN3CCN(C)CC3)c(C(F)(F)F)c2)c1"
Result: 13.3 µM

Query: Note GI50 for the compound shown: "COc1ccc2[nH]cc(-c3nc(-c4c[nH]c5ncccc45)cs3)c2c1"
Result: 8.36 µM

Query: Note GI50 for the compound shown: CCN(CC)CCOc1ccc(/C=C2\CC3C4CC=C5C[C@@H](O)CC[C@]5(C)C4CC[C@]3(C)C2=O)cc1OC (stereo not given in full)
Result: 7.27 µM

Query: Note GI50 for the compound shown: "Cc1ccc(Cl)cc1Nc1nc(C(F)(F)F)ccc1C(=O)N1CCN(c2cccc(Cl)c2)CC1"
Result: > 100 µM

Query: Note GI50 for the compound shown: "CCCn1c(N)c(C(=O)N/N=C(/C)c2cc3cccc(OC)c3o2)sc1=S"
Result: 53.3 µM
